B1: Pituitary-specific positive transcription factor 1, residues 130 to 198; numbered along this chain, P28069 (parent)
chain: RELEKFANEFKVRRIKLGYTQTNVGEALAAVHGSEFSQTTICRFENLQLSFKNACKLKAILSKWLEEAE

Variants of: B1
Experiment: abundance fitness (aPCA) (normalised: wild type 0, dead -1); higher = more abundant; growth selection in yeast, the domain comes from the species named
Conditions: Homo sapiens
// label = yes (1) if abundance fitness is not less than -0.04, otherwise no (0)

The examples below pair each entry with its known result.
Change	Group
R43E	yes (1)
L47E	no (0)
T22Q	yes (1)
S62N	no (0)
A27E	yes (1)
E2C	no (0)
C55A	no (0)
A59Q	no (0)

Lookup: Please indicate if the recorded abundance fitness for E35Q meets or exceeds -0.04.
Found: no (0)

Lookup: Please indicate if the recorded abundance fitness for C55K meets or exceeds -0.04.
Found: no (0)

Lookup: Please indicate if the recorded abundance fitness for K5C meets or exceeds -0.04.
Found: no (0)
